Tested on: NCI-H2170
Test: relative viability (nuclei count vs DMSO), 5 days (fraction); higher = more cells survive
Settings: first compound 0.8 µM
endpoint label: relative viability
Just the number, please.

Field: example entries. Status: answers known.
[[record]]
molecule = "O=c1[nH]c2ccccc2n1C1CCN(CCCC(c2ccc(F)cc2)c2ccc(F)cc2)CC1 [Pimozide] + Cc1nc(Nc2ncc(C(=O)Nc3c(C)cccc3Cl)s2)cc(N2CCN(CCO)CC2)n1 [Dasatinib] (partner 0.075 µM)"
study_target = "NCI-H2170"
measured_value = 0.627

[[record]]
molecule = "O=c1[nH]c2ccccc2n1C1CCN(CCCC(c2ccc(F)cc2)c2ccc(F)cc2)CC1 [Pimozide] + Nc1nc2[nH]cc(CCc3ccc(C(=O)N[C@@H](CCC(=O)O)C(=O)O)cc3)c2c(=O)[nH]1 [Pemetrexed] (partner 0.2 µM)"
study_target = "NCI-H2170"
measured_value = 0.263

[[record]]
molecule = "Cc1cnc(-c2cnc(NCCNc3ccc(C#N)cn3)nc2-c2ccc(Cl)cc2Cl)[nH]1 + Cc1nc(Nc2ncc(C(=O)Nc3c(C)cccc3Cl)s2)cc(N2CCN(CCO)CC2)n1 [Dasatinib] (partner 0.075 µM)"
study_target = "NCI-H2170"
measured_value = 0.576

[[record]]
molecule = "Cc1cnc(-c2cnc(NCCNc3ccc(C#N)cn3)nc2-c2ccc(Cl)cc2Cl)[nH]1 + NC(=O)Nc1cc(-c2cccc(F)c2)sc1C(=O)N[C@H]1CCCNC1 [AZD7762] (partner 0.2 µM)"
study_target = "NCI-H2170"
measured_value = 0.774


Please find the next molecule below.
Q) Data request, read-out relative viability, for Cc1cnc(-c2cnc(NCCNc3ccc(C#N)cn3)nc2-c2ccc(Cl)cc2Cl)[nH]1 + Nc1ncn([C@H]2C[C@H](O)[C@@H](CO)O2)c(=O)n1 [Decitabine] (partner 2 µM)
A) 0.484
